Biological target: T1, Bzz1-1, P38822
T1 sequence (P38822 478-572, looked up): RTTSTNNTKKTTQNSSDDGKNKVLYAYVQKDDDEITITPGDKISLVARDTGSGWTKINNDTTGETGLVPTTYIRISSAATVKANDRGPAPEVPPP
Assay: SPOT array
Conditions: median of control spots 4446
Entries and their measured SPOT intensity follow.
Give a plain numeric answer without units written out.

Recorded results for 2 binders are shown here.
> print(dat)
            binder  reported.endpoint  measured.result
1  RVTRKRPREPKSTND     SPOT intensity                0
2  ALFRLSFFFPLDPAY     SPOT intensity                0

May I ask what SPOT intensity has been recorded for QQEQNTPPLPPKPKS ?
0

Provenance of the data: paper PMC2756588
